- method-description: Saturation mutagenesis of SEQ ID NO:109: dicamba decarboxylation activity of point mutants (CO2 released), fold of backbone (Tables 7, 8, Megatable 1)
- test-parameters: decarboxylation activity (CO2 released) of point mutant vs unmutated backbone protein; backbone SEQ ID NO: 109
outcome-measure: Fold Activity
Just so you know, I need the unit written after the number.

Which Fold Activity reading was recorded for the molecule 24 (protein, Aspergillus niger) MALGKVVLEEAYERPNMKEKSNHEAGLYIAPNDRPRYMRQINDINQERLKLADAHGVGYTIISLTVPGIQGIFDKTEAERVATETNNWAAEQIKNHRDRLGAFACLSMHDPAQAANELRRCVQELGFHGALLCSFQHAGPDGETYLFYDQPKYDVFWKALTELDVPLYIHPAAPTGSILERLYAQRPALIGPPLSFANDVSLHTLGIISNGVFDRFPNLKIIIGHLGEHIPFDFWRIDHWFRDVKKPIADEEGRVMAQKSLYHYFKHNIWLTTSGHFSTPTLKYVVNEIGVDRVLFSVDYPYETTESGCNWWDHDKDAIVEAVGGVDNYYAIGRENAKKLLRLDKFHDSDAR ?
1.6 fold
